# Tgt: human PKCθ full length enzyme (Homo sapiens)
# Construct: human PKCθ full length enzyme (Panvera Cat# P2996); purchased Panvera P2996
# Sequence (Q04759 whole entry): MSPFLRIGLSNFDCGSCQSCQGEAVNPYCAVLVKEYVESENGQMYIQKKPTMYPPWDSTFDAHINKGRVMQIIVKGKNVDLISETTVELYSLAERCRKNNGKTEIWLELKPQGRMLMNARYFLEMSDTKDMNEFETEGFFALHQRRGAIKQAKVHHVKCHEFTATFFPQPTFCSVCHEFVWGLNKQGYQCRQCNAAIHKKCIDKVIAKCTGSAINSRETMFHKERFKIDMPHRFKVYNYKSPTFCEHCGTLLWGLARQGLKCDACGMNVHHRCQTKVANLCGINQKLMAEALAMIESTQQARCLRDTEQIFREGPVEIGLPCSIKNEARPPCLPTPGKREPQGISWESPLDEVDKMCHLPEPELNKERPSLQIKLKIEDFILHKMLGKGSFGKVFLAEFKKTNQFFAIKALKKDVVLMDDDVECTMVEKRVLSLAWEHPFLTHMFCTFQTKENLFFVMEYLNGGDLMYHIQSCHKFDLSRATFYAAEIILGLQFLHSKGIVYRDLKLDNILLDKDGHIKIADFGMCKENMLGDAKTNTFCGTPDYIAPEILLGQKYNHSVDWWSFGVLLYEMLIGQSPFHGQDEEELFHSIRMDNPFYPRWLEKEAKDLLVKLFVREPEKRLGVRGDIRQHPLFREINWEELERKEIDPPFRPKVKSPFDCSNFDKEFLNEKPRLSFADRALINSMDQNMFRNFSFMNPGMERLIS
# Procedure text: PKCθ IMAP assay (fluorescence polarization)
# Format: biochemical
# Condition details: human PKCθ full length enzyme, IMAP; average value; read-out: IC50 PKCθ IMAP
pIC50: −log10 of the molar value.
Endpoint label: pIC50

Cc1cc2[nH]ccc2cc1Nc1c(C#N)cncc1-c1ccc(OCCN2CCN(C)CC2)cc1; 7.48
Cc1c(Nc2c(C#N)cncc2-c2ccc(CN3CCC(N4CCCCC4)CC3)o2)ccc2[nH]ccc12; 8.30
Cc1c(Nc2c(C#N)cncc2-c2cccc(N(C)C)c2)ccc2[nH]ccc12; 7.44
Cc1c(Nc2c(C#N)cncc2-c2cccnc2)ccc2[nH]ccc12; 7.44

[1] CN(C)C(=O)c1cccc(-c2cncc(C#N)c2Nc2cccc3[nH]ccc23)c1
[2] CN(C)Cc1ccc(-c2cccc(-c3cncc(C#N)c3Nc3ccc4[nH]ccc4c3)c2)s1
Of the pair 1 and 2 , name the member with the lesser recorded pIC50. Label of pick, please.
1
(1: 6.22, 2: 6.96)

[I] COc1ccc(COC(=O)Nc2ccc(-c3cncc(C#N)c3Nc3ccc4[nH]ccc4c3C)cc2F)cc1
[II] N#Cc1cncc(-c2cc3ccccc3o2)c1Nc1ccc2[nH]ccc2c1
In the pair I and II , the larger recorded pIC50 belongs to which? Label of pick, please.
II
